I'd be grateful if you could share measured growth for these entries.
System: EKVX NSCLC
PROCEDURE_TEXT: NCI-60 one-dose screen, 48 h (100 = growth as untreated, 0 = no growth, -100 = all killed)
RUN_PARAMETERS: 10 µM unless noted
The panel holds about 83,000 compounds, 20% with a hit somewhere; the sample as a whole holds those more often.
One number for each entry, in %.

# batch size: 3; output growth per entry
1. COc1ccc(Cn2nc(-c3cc(OC)c(OC)c(OC)c3)c3c2CCc2cnoc2-3)cc1OC
2. Cc1nn(-c2ccccc2)c(N2CCOCC2)c1/C=N/N=c1\sc2ccccc2n1C
3. CCCNC(=O)Oc1ccc(/C(=C(\C)c2ccccc2)c2ccc(OCCN3CCCCC3)cc2)cc1

Result ::
[77.7, 82.2, 82.2]
